Assay: Metabolic stability in mouse liver microsomes assessed as parent compound remaining at 1 uM after 30 mins relative to control
Assay type: ADME, Microsome
Details: read-out: Stability
result-type: remaining at 0.5 h, 1 µM (%)
Write the answer as a number in %, unit excluded.

## Input Note remaining at 0.5 h, 1 µM for the molecule shown: "Cc1cccc(Nc2nc(N[C@@H]3CCCC[C@@H]3N)c(C#N)cc2C(N)=O)c1"
## Output 100

## Input Note remaining at 0.5 h, 1 µM for the molecule shown: "Cc1cccc(Nc2nc(N[C@@H]3CCCC[C@@H]3N)c(C#N)c3cn[nH]c(=O)c23)c1"
## Output 96

====

Kindly supply the reported fraction unbound at 4 h, 10 ug/mL values for the records listed here.
Assay: Protein binding in BALB/c mouse serum at 10 ug/mL incubated for 4 hrs under shaking condition by LC/MS/MS analysis
Format: ADME, cell-free
Settings: read-out: PPB
Answer with a number only.

## Input Note fraction unbound at 4 h, 10 ug/mL for the compound shown: "Cc1cccc(Nc2nc(N[C@@H]3CCCC[C@@H]3N)c(C#N)c3cn[nH]c(=O)c23)c1"
## Output 0.01

## Input Note fraction unbound at 4 h, 10 ug/mL for the compound shown: "Cc1cccc(Nc2nc(N[C@@H]3CCCC[C@@H]3N)c(C#N)cc2C(N)=O)c1"
## Output 0.01

====

Assay: Solubility in FaSSIF
Assay type: physicochemical
result-type: solubility (µg/mL)
Write the answer as a number in µg/mL, unit excluded.

## Input Note solubility for the compound shown: "Cc1cccc(Nc2nc(N[C@@H]3CCCC[C@@H]3N)c(C#N)cc2C(N)=O)c1"
## Output 49

## Input Note solubility for the compound shown: "Cc1cccc(Nc2nc(N[C@@H]3CCCC[C@@H]3N)c(C#N)c3cn[nH]c(=O)c23)c1"
## Output 2.1

====

Test: Effective permeability of compound at 5 uM after 24 hrs at pH 7.4 by LC/MS/MS based PAMPA assay
Format: ADME
Settings: read-out: Peff
result-type: Papp at 24 h, 5 µM (×10⁻⁶ cm/s)
Write the answer as a number in ×10⁻⁶ cm/s, unit excluded.

## Input Note Papp at 24 h, 5 µM for the compound shown: "Cc1cccc(Nc2nc(N[C@@H]3CCCC[C@@H]3N)c(C#N)cc2C(N)=O)c1"
## Output 16

====

Assay: Oral bioavailability in BALB/cAnNCrlCrlj mouse at 10 mg/kg administered via gavage after 24 hrs
Type: ADME, organism-based
Details: in vivo
result-type: bioavailability (%)
Write the answer as a number in %, unit excluded.

## Input Note bioavailability for the compound shown: "Cc1cccc(Nc2nc(N[C@@H]3CCCC[C@@H]3N)c(C#N)cc2C(N)=O)c1"
## Output 17

## Input Note bioavailability for the compound shown: "Cc1cccc(Nc2nc(N[C@@H]3CCCC[C@@H]3N)c(C#N)c3cn[nH]c(=O)c23)c1"
## Output 34

====

Kindly supply the reported AUC at 24 h values for the records listed here.
Experiment: AUC in BALB/cAnNCrlCrlj mouse at 10 mg/kg, po administered via gavage after 24 hrs
Type: ADME, organism-based
Parameters: time < 24 hr, dose 10 mg/kg, route oral
Settings: in vivo
Write the answer as a number in ng·h/mL, unit excluded.

## Input Note AUC at 24 h for the compound shown: "Cc1cccc(Nc2nc(N[C@@H]3CCCC[C@@H]3N)c(C#N)cc2C(N)=O)c1"
## Output 2400

## Input Note AUC at 24 h for the compound shown: "Cc1cccc(Nc2nc(N[C@@H]3CCCC[C@@H]3N)c(C#N)c3cn[nH]c(=O)c23)c1"
## Output 4800
